system: KBA 2 (DNA, aptamer) ATGCGGATCCCGCGCGACCAACGGAAGCGCGCCACCCCATCGGCGGCGCGAAGCTTGCGC; experiment: ELONA (biotin-aptamer, streptavidin-HRP); settings: immobilised compound; 1 μM aptamer
MEASUREMENT_KIND: binding

SMILES_CODE: CN(C)[C@@H]1C(=O)C(C(N)=O)=C(O)[C@@]2(O)C(=O)C3=C(O)c4c(O)cccc4[C@@](C)(O)[C@H]3C[C@@H]12
TEST_SYSTEM: KBA 2 (DNA, aptamer) ATGCGGATCCCGCGCGACCAACGGAAGCGCGCCACCCCATCGGCGGCGCGAAGCTTGCGC
MEASURED_RESULT: weak

SMILES_CODE: CN[C@@H]1[C@H](O[C@H]2[C@H](O[C@H]3[C@H](O)[C@@H](O)[C@H](N=C(N)N)[C@@H](O)[C@@H]3N=C(N)N)O[C@@H](C)[C@]2(O)C=O)O[C@@H](CO)[C@H](O)[C@H]1O
TEST_SYSTEM: KBA 2 (DNA, aptamer) ATGCGGATCCCGCGCGACCAACGGAAGCGCGCCACCCCATCGGCGGCGCGAAGCTTGCGC
MEASURED_RESULT: weak

SMILES_CODE: CC1(C)S[C@@H]2[C@H](NC(=O)[C@H](N)c3ccccc3)C(=O)N2[C@H]1C(=O)O
TEST_SYSTEM: KBA 2 (DNA, aptamer) ATGCGGATCCCGCGCGACCAACGGAAGCGCGCCACCCCATCGGCGGCGCGAAGCTTGCGC
MEASURED_RESULT: weak

SMILES_CODE: CN[C@@H]1[C@H](O[C@H]2[C@H](O[C@H]3[C@H](O)[C@@H](O)[C@H](N=C(N)N)[C@@H](O)[C@@H]3N=C(N)N)O[C@@H](C)[C@]2(O)CO)O[C@@H](CO)[C@H](O)[C@H]1O
TEST_SYSTEM: KBA 2 (DNA, aptamer) ATGCGGATCCCGCGCGACCAACGGAAGCGCGCCACCCCATCGGCGGCGCGAAGCTTGCGC
MEASURED_RESULT: weak
